# Tested on: Botrytis cinerea
Peptide text beside a SMILES is read from it.
We begin with a simple list: items and their reported MIC (μM) (SFM + 2 mM CaCl2).

COMPOUND	MIC (μM) (SFM + 2 mM CaCl2)
C[C@@H](O)[C@H](NC(=O)[C@H](CS)NC(=O)[C@H](Cc1c[nH]c2ccccc12)NC(=O)[C@H](CS)NC(=O)[C@H](CCCNC(=N)N)NC(=O)[C@H](Cc1ccccc1)NC(=O)[C@H](CC(=O)O)NC(=O)[C@H](CC(=O)O)NC(=O)[C@H](CCCNC(=N)N)NC(=O)[C@H](CS)NC(=O)[C@H](CCCNC(=N)N)NC(=O)CN)C(=O)N[C@@H](CCCCN)C(=O)N[C@@H](CC(N)=O)C(=O)N[C@@H](CS)C(=O)O [GMA1C, reference compound] (H-GRCRDDFRCWCTKNC-OH; N-terminus assumed)	>12 µM
C[C@H](NC(=O)CN)C(=O)N[C@@H](CS)C(=O)N[C@@H](Cc1c[nH]cn1)C(=O)N[C@@H](CCCNC(=N)N)C(=O)N[C@@H](CCC(N)=O)C(=O)NCC(=O)N[C@@H](Cc1ccccc1)C(=O)NCC(=O)N[C@@H](Cc1ccccc1)C(=O)N[C@@H](C)C(=O)N[C@@H](CS)C(=O)N[C@@H](Cc1ccccc1)C(=O)N[C@@H](CS)C(=O)N[C@@H](Cc1ccc(O)cc1)C(=O)N[C@@H](CCCCN)C(=O)N[C@@H](CCCCN)C(=O)N[C@@H](CS)C(N)=O [GMA5CA_WT, reference compound] (H-GACHRQGFGFACFCYKKC-NH2; N-terminus assumed)	>12 µM
